Tested on: HOP-62 NSCLC
Assay: NCI tumour cell line growth inhibition, 48 h
Items are presented alongside their recorded TGI.
Just the number in µM, nothing appended.

// below: answered compounds
| structureSmilesString | measureName | unitOfMeasurement | assayValue |
| --- | --- | --- | --- |
| O=C1C(Nc2ccc(Br)cc2)=C(I)C(=O)c2ncccc21 | TGI | µM | 8.31 |
| Cc1cc(=O)n2c3c(c4c(cc13)c(CO)cc(=O)n4C)OC2 | TGI | µM | 40.2 |

Now turn to the next compound.
Query: Give the reported TGI for `COc1ccc(-c2nnc3n(Cc4ccccc4)c4ccccc4n3c2=O)cc1` (system: HOP-62 NSCLC).
Reply: 12.2

###

Tested on: MOLT-4 leukemia
Experiment: NCI tumour cell line growth inhibition, 48 h
measureName: GI50

| molecule | measureName | assayValue |
| --- | --- | --- |
| C/C(=N\NC(=S)N1CCN(C2CCCCCC2)CC1)c1ccccn1 | GI50 | < 1 nM |
| O=c1c2c(c3ccccc3n1-c1ccccc1)NC(=S)NC2c1ccc(Cl)cc1 (stereo not given) | GI50 | 4170 nM |
| Nc1ccccc1NC(=O)c1ccc(CN2CCC/C(=C\c3ccccn3)C2=O)cc1 | GI50 | 1260 nM |
| N#Cc1ccsc1NC(=O)COC(=O)c1cccc(S(=O)(=O)N2CCc3ccccc32)c1 | GI50 | 6680 nM |
| C=C1CC[C@@H]2[C@](C)(COC(C)=O)[C@H](OC(C)=O)CC[C@@]2(C)[C@@H]1CC(Nc1ccc(S(=O)(=O)Nc2cc(C)on2)cc1)C1=CCOC1=O (stereo not given in full) | GI50 | 2120 nM |
| O=C1C(Nc2ccc(Br)cc2)=C(I)C(=O)c2ncccc21 | GI50 | 912 nM |

Query: What reported GI50 corresponds to `COc1cc2nc(-c3ccc(Cl)cc3)cc(OCCCN3CCCC3)c2cc1OC` on MOLT-4 leukemia?
Reply: 1500 nM

Query: Notebook: pull reported GI50 for MOLT-4 leukemia, entry `CNc1cc2nc3cc(NC)c(C)cc3cc2cc1C`
Reply: 514 nM

Query: So what GI50 did `Clc1nc(Cl)c2c3c(sc2n1)CCCC3` get with MOLT-4 leukemia?
Reply: 3610 nM

Query: Form: Entry = `NCCCCCCCCCCCn1c2c(c3ccccc3c1=O)C(=O)c1ccccc1-2` | System = MOLT-4 leukemia | GI50 = ____
Reply: 1970 nM

###

Tested on: OVCAR-3 ovarian
Assay: NCI tumour cell line growth inhibition, 48 h
The reader will find reported TGI values listed item by item below.
I only need the number, in µM, no unit after it.

| compound | testSystem | TGI, µM |
| --- | --- | --- |
| C=C1CC[C@@H]2[C@](C)(COC(C)=O)[C@H](OC(C)=O)CC[C@@]2(C)[C@@H]1CC(Nc1ccc(S(=O)(=O)Nc2cc(C)on2)cc1)C1=CCOC1=O (some centres undefined) | OVCAR-3 ovarian | 3.09 |
| Cn1cc(-c2csc(-c3cn(CCCCN4CCCCC4)c4ccc(F)cc34)n2)c2cccnc21 | OVCAR-3 ovarian | 3.17 |
| Cc1cc(C)c2c(c1)C1=NCCN1C2(O)c1ccc(Cl)cc1 (centres undefined) | OVCAR-3 ovarian | 31.4 |

Okay, next one:
Query: Form field: reported TGI of Cc1cc(C)nc(SCC(=O)OC2CC(C)CCC2C(C)C)n1 (centres undefined)
Reply: 28.5
